# Target desc: human plasma kallikrein (Homo sapiens (Human), UniProt P03952)
# Sequence (P03952 391-638): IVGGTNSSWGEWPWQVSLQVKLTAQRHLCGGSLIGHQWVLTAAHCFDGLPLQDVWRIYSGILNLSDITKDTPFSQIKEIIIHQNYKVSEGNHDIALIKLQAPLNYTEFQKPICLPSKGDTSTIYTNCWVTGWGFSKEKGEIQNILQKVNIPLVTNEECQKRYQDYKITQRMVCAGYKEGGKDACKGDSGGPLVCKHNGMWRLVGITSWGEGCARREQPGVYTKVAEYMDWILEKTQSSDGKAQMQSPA
# Sequence (P03952 20-390 partner): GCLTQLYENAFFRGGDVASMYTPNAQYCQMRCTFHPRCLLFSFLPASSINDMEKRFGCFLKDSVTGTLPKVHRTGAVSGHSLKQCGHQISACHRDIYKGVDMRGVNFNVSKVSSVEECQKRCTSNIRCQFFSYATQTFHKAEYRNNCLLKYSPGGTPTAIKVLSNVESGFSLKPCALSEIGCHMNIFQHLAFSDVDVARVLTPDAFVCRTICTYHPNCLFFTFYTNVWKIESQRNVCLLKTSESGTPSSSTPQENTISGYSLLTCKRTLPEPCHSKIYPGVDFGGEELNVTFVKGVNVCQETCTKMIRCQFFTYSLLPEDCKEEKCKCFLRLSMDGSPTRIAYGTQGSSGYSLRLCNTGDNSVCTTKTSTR
# Experimental protocol: Kallikrein inhibition assay (FLINT) utilizing a quenched AMC peptide substrate
# Assay type: biochemical
# Condition set: 30 min preincubation, kinetic reads over 30 min, Z-Gly-Pro-Arg-AMC substrate 50 μM; read-out: Kallikrein Kin Inh IC50
Observable: IC50 (nM)

CNc1nccc(-c2cnc([C@@H]3CC[C@@H]4CC(c5c(-n6cnnn6)ccc(Cl)c5F)=CC(=O)N43)[nH]2)c1F : 1.1
O=C1C=C(c2cc(Cl)ccc2-n2cnnn2)C(F)(F)C2CC[C@@H](c3ncc(-c4ccnc(CO)c4F)[nH]3)N12 (stereo partly shown) : 59.2
Cc1ccc(-n2cnnn2)c(C2=CC(=O)N3[C@H](CC[C@H]3c3ncc(-c4ccnc(CO)c4F)[nH]3)C2)c1F : 106
Cc1nc([C@@H]2CC[C@@H]3CC(c4c(-n5cnnn5)ccc(Cl)c4F)=CC(=O)N32)[nH]c1-c1ccnc(CO)c1F (single isomer, unassigned) : 245
O=C1C=C(c2c(-n3cnnn3)ccc(Cl)c2F)C[C@H]2CC[C@@H](c3ncc(-c4cc[n+]([O-])c(CO)c4F)[nH]3)N12 : 420
O=C1C=C(c2c(-n3cnnn3)ccc(Cl)c2F)C[C@H]2CC[C@H](c3ncc(-c4ccnc(-n5cnnc5)c4F)[nH]3)N12 (relative stereo) : 136
NC(=O)c1ccc(-c2nc([C@@H]3CC[C@@H]4CC(c5c(-n6cnnn6)ccc(Cl)c5F)=CC(=O)N43)[nH]c2Cl)s1 : 0.8
O=C(Nc1ccccc1-c1c[nH]c([C@@H]2CCC3CC(c4c(-n5cnnn5)ccc(Cl)c4F)=CC(=O)N32)n1)C1CCCC1 (stereo partly shown) : 2.4

a = COC(=O)Nc1ccc(-c2cnc([C@@H]3CC[C@H]4CC(c5c(OC(F)F)ccc(Cl)c5F)=CC(=O)N43)[nH]2)cc1 (relative stereo)
b = COC(=O)Nc1ccc(-c2cnc([C@@H]3CCC4CC(c5c(-n6cnnn6)ccc(Cl)c5F)=CC(=O)N43)[nH]2)cn1 (stereo partly shown)
c = C[C@H](Oc1nccc(-c2cnc([C@@H]3CC[C@@H]4CC(c5c(-n6cnnn6)ccc(Cl)c5F)=CC(=O)N43)[nH]2)c1F)c1ncco1 (single isomer, unassigned)
d = O=C1C=C(c2c(-n3cnnn3)ccc(Cl)c2F)C[C@H]2CC[C@H](c3ncc(-c4ccnc(C5(O)CC5)c4F)[nH]3)N12 (single isomer, unassigned) [Example 162]
e = CC(=O)NCc1nccc(-c2cnc([C@@H]3CC[C@@H]4CC(c5c(-n6cnnn6)ccc(Cl)c5F)=CC(=O)N43)[nH]2)c1F
// ascending sort on recorded IC50 Reply with the labels, ordered as the question asks.
a, b, c, d, e

###

# Target desc: human plasma kallikrein (Homo sapiens (Human), UniProt P03952)
# Experimental protocol: Kallikrein inhibition assay (FLINT) utilizing a quenched AMC peptide substrate
# Assay type: biochemical
# Condition set: 30 min preincubation, kinetic reads over 30 min, Z-Gly-Pro-Arg-AMC substrate 50 μM; read-out: Kallikrein Kin Inh IC50
pIC50: −log10 of the molar value.
Observable: pIC50

O=C1C=C(c2c(-n3cnnn3)ccc(Cl)c2F)C[C@H]2CC[C@@H](c3nc(F)c(-c4ccnc(-n5cccn5)c4)[nH]3)N12 [Example 88] : 8.72
O=C1C=C(c2c(-n3cnnn3)ccc(Cl)c2F)C[C@@H]2CC[C@@H](c3ncc(-c4ccc5[nH]c(=O)ccc5c4)[nH]3)N12 [Example 270] : 9.40
O=C1C=C(c2c(-n3cnnn3)ccc(Cl)c2F)C[C@@H]2CC[C@H](c3ncc(-c4ccnc(N5CCC[C@@H](O)C5)c4F)[nH]3)N12 (stereo in doubt) [Example 187] : 8.39
CC(C)(O)COc1nccc(-c2c[nH]c([C@@H]3CC[C@@H]4CC(c5c(-n6cc(C(F)(F)F)nn6)ccc(Cl)c5F)=CC(=O)N43)n2)c1F [Example 191] : 7.46
CC1(C)C[C@@H](c2ncc(-c3ccc(N)nc3Cl)[nH]2)N2C(=O)C=C(c3c(-n4cnnn4)ccc(Cl)c3F)C[C@@H]21 (relative stereo) [Example 335] : 7.64
N#CC1CN(c2nccc(-c3cnc([C@H]4CC[C@@H]5CC(c6c(-n7cnnn7)ccc(Cl)c6F)=CC(=O)N54)[nH]3)c2F)C1 (single isomer, unassigned) [Example 102] : 8.02

a = COC(=O)Nc1ccc(-c2cnc([C@@H]3CC[C@H]4CC(c5c(-n6cnnn6)ccc(Cl)c5F)=CC(=O)N43)[nH]2)cc1 [Example 340]
b = Cc1nc2ccc(-c3cnc([C@@H]4CC[C@@H]5CC(c6c(-n7cnnn7)ccc(Cl)c6F)=CC(=O)N54)[nH]3)cc2[nH]1 [Example 30]
c = O=C1C=C(c2c(-n3cnnn3)ccc(Cl)c2F)C[C@H]2CC[C@@H](c3nc(Cl)c(-c4ccnc([C@@H](O)C(F)(F)F)c4)[nH]3)N12 [Example 173]
Arrange by pIC50, high to low. Output spec: a listing of the labels in the requested order.
a, b, c

a = O=C1C=C(c2c(-n3cnnn3)ccc(Cl)c2F)C[C@H]2CC[C@@H](c3ncc(-c4ccc5[nH]ccc5c4)[nH]3)N12 [Example 14]
b = CC(=O)Nc1ccccc1-c1cnc([C@@H]2CC[C@H]3CC(c4c(-n5cnnn5)ccc(Cl)c4F)=CC(=O)N32)[nH]1 (relative stereo) [Example 306]
Given a and given b , which shows the smaller recorded pIC50? Kindly state the label of the option you pick.
b

A = O=C1C=C(c2c(-n3cnnn3)ccc(Cl)c2F)C[C@H]2CC[C@@H](c3ncc(-c4ccnc(C(F)(F)F)c4)[nH]3)N12 [Example 351]
B = COc1ccccc1-c1c[nH]c([C@@H]2CCC3CC(c4c(-n5cnnn5)ccc(Cl)c4F)=CC(=O)N32)n1 (stereo partly shown) [Example 317]
Compare A and B and name the one whose reported pIC50 is smaller. Mark your answer with the label of the selected entry.
B
(B: 7.89, A: 8.11)

1 = COC(=O)c1nccc(-c2cnc([C@@H]3CC[C@@H]4CC(c5c(-n6cc(Cl)nn6)ccc(Cl)c5F)=CC(=O)N43)[nH]2)c1F [Example 50]
2 = O=C1C=C(c2c(C(F)F)ccc(Cl)c2F)C[C@H]2CC[C@@H](c3ncc(-c4ccnc(CO)c4F)[nH]3)N12 [Example 26]
Which record shows the lower pIC50: the first, 1 , or the second, 2 ? Refer to your chosen entry by its label in the reply.
2
(2: 6.57, 1: 7.50)
